metric: melting point

Reference set (10 entries):
O=S(=O)(c1ccc(F)cc1)C(c1cc(F)ccc1F)c1cc(NCCO)ncc1Cl (stereo unspecified); 157 to 158 °C
CSc1ncc(C=O)c(NC2CC2)n1; 69.5 to 70 °C
CCCCCCCCCCCCOC(=O)c1ccc(O)c(N)c1; 86 to 89 °C
OCc1csc(Cl)c1Cl; 63 to 65 °C
COC(=O)c1c(OCC#N)c2cc(OC)ccc2n1C; 136 to 137 °C
CC1CC(=O)NN=C1c1ccc(-n2ccnc2)nc1 (stereo unspecified); 140 °C
O=C1NC(=O)c2c1c(-c1cc([N+](=O)[O-])ccc1O)cc1[nH]c3ccc(O)cc3c21; > 330 °C
N=C(NO)C1C=Cc2ccccc2N1C(=O)c1ccccc1 (stereo unspecified); 176 to 178 °C
CCCCCCCCCCCCC1=C(OC(C)=O)C(=O)c2c(Cl)cccc2C1=O; 57 to 59 °C
CC(=O)NCC(CCl)OC(C)=O (stereo unspecified); 68 to 69.5 °C

The molecule identified as `Fc1cccc(Cn2ncc3cc(Nc4ncnc5cnc(F)cc45)ccc32)c1` registered its melting point at 218 to 221 °C
